Target: UniProt:Q9QNF7
Sequence (Q9QNF7 whole entry): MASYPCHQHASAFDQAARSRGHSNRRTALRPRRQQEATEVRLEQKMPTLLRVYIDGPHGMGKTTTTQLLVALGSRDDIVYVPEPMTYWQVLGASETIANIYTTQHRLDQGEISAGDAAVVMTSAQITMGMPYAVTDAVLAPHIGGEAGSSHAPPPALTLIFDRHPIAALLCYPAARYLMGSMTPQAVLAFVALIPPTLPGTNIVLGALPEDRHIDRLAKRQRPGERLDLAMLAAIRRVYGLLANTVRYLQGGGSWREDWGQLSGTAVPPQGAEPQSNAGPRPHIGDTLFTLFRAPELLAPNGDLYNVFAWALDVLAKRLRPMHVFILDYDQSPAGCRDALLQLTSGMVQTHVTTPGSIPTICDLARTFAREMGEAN
Assay: Inhibition of HSV1 TK assessed as [methyl-3H]dThd phosphorylation
Reported Metric: IC50

{"Compound": "Nc1ccn([C@@H]2O[C@H](CO)[C@@H](O)[C@@H]2O)c(=O)n1 [CYTARABINE]", "Result": "> 1000 µM"}
{"Compound": "CCCCCCCCCCCC(=O)O[C@H]1[C@H](O)[C@@H](CO)O[C@H]1n1cc(C)c(=O)[nH]c1=O", "Result": "≥ 1000 µM"}
{"Compound": "CCCCCCCC(=O)O[C@H]1[C@H](O)[C@@H](CO)O[C@H]1n1cnc2c(=O)[nH]c(N)nc21", "Result": "> 500 µM"}
{"Compound": "O=c1[nH]c(=O)n([C@@H]2O[C@H](CO)[C@@H](O)[C@@H]2O)cc1/C=C/Br [SORIVUDINE]", "Result": "3.6 µM"}
{"Compound": "COc1ccc(CC(=O)O[C@H]2[C@H](O)[C@@H](CO)O[C@H]2n2cc(/C=C/Br)c(=O)[nH]c2=O)cc1", "Result": "68 µM"}
{"Compound": "CC(C)(C)OC(=O)NCCCCCC(=O)O[C@H]1[C@H](O)[C@@H](CO)O[C@H]1n1cc(/C=C/Br)c(=O)[nH]c1=O", "Result": "≥ 500 µM"}
{"Compound": "CCCCCCCCCC(=O)N[C@H]1[C@H](O)[C@@H](CO)O[C@H]1n1cc(C)c(=O)[nH]c1=O", "Result": "> 500 µM"}
{"Compound": "Cc1cn([C@@H]2O[C@H](CO)[C@@H](O)[C@@H]2O)c(=O)[nH]c1=O", "Result": "24 µM"}
